target: Tyrosine-protein phosphatase 1 (Saccharomyces cerevisiae S288c)
Sequence (P25044 whole entry): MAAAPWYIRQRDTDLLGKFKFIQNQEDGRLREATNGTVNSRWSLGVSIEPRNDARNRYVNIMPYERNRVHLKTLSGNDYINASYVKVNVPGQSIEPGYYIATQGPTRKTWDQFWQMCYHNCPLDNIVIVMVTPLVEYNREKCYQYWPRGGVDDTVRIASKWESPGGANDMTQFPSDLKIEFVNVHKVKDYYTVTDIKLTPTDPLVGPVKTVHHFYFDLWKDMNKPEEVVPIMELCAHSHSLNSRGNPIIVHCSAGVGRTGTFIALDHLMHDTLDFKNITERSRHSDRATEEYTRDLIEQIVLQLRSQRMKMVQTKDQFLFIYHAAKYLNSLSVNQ
pIC50: −log10 of the molar value.

{"structureAsSmiles": "O=C(O)c1cc(Cc2ccccc2)cc(-c2ccccc2)c1O", "assaySystem": "Tyrosine-protein phosphatase 1 (Saccharomyces cerevisiae S288c)", "pIC50": 3.57}

----------
Target sequence: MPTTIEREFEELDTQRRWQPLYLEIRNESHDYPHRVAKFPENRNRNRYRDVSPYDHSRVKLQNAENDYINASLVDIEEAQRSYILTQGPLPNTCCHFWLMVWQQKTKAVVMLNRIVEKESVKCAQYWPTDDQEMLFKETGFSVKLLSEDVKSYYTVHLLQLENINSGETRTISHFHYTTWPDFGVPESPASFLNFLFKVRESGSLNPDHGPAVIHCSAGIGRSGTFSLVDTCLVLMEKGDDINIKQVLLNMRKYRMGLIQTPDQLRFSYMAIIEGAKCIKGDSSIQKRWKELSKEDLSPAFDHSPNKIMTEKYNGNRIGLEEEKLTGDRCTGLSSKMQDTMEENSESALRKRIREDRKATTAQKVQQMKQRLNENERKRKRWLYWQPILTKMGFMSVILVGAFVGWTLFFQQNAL
pIC50: −log10 of the molar value.

{"structureAsSmiles": "O=C(O)c1cc(Cc2ccccc2)cc(-c2ccccc2)c1O", "pIC50": 3.27}

----------
Target: Tyrosine-protein phosphatase non-receptor type 1 (Homo sapiens, UniProt P18031)
Sequence (P18031 whole entry): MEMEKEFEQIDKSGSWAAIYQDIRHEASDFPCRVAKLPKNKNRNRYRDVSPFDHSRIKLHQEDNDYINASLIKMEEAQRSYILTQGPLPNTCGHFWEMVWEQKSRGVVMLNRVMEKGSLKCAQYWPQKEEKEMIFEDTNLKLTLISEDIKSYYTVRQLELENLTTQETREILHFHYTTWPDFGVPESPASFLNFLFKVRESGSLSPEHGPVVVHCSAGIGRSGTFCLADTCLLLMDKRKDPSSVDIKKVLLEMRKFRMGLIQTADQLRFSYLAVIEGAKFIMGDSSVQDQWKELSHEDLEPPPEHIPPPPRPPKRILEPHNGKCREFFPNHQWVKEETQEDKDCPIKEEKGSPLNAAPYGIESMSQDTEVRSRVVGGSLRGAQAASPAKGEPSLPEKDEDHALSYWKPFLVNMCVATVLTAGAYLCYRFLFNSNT
Experiment: Inhibition of PTP1B

{"structureAsSmiles": "O=Cc1ccc(O)c(C(=O)O)c1", "unitInfo": "µM", "censoringSign": ">", "IC50": 1000}
{"structureAsSmiles": "O=C(O)c1cc(Cc2ccccc2)cc(-c2ccccc2)c1O", "unitInfo": "µM", "censoringSign": "=", "IC50": 65}
{"structureAsSmiles": "O=C(O)c1cc(-c2ccccc2)cc(Cc2cc(-c3ccccc3)cc(C(=O)O)c2O)c1O", "unitInfo": "µM", "censoringSign": "=", "IC50": 19}
{"structureAsSmiles": "O=C(O)c1cc(Br)cc(Cc2ccccc2)c1O", "unitInfo": "µM", "censoringSign": "=", "IC50": 148}
{"structureAsSmiles": "O=C(O)c1cc(F)cc(Cc2cc(F)cc(C(=O)O)c2O)c1O", "unitInfo": "µM", "censoringSign": "=", "IC50": 215}

Just for reference, ChEMBL document CHEMBL1143766 is where these values come from.
